Biological target: Sodium channel protein type 10 subunit alpha (Homo sapiens, UniProt Q9Y5Y9)
Sequence (Q9Y5Y9 whole entry, looked up): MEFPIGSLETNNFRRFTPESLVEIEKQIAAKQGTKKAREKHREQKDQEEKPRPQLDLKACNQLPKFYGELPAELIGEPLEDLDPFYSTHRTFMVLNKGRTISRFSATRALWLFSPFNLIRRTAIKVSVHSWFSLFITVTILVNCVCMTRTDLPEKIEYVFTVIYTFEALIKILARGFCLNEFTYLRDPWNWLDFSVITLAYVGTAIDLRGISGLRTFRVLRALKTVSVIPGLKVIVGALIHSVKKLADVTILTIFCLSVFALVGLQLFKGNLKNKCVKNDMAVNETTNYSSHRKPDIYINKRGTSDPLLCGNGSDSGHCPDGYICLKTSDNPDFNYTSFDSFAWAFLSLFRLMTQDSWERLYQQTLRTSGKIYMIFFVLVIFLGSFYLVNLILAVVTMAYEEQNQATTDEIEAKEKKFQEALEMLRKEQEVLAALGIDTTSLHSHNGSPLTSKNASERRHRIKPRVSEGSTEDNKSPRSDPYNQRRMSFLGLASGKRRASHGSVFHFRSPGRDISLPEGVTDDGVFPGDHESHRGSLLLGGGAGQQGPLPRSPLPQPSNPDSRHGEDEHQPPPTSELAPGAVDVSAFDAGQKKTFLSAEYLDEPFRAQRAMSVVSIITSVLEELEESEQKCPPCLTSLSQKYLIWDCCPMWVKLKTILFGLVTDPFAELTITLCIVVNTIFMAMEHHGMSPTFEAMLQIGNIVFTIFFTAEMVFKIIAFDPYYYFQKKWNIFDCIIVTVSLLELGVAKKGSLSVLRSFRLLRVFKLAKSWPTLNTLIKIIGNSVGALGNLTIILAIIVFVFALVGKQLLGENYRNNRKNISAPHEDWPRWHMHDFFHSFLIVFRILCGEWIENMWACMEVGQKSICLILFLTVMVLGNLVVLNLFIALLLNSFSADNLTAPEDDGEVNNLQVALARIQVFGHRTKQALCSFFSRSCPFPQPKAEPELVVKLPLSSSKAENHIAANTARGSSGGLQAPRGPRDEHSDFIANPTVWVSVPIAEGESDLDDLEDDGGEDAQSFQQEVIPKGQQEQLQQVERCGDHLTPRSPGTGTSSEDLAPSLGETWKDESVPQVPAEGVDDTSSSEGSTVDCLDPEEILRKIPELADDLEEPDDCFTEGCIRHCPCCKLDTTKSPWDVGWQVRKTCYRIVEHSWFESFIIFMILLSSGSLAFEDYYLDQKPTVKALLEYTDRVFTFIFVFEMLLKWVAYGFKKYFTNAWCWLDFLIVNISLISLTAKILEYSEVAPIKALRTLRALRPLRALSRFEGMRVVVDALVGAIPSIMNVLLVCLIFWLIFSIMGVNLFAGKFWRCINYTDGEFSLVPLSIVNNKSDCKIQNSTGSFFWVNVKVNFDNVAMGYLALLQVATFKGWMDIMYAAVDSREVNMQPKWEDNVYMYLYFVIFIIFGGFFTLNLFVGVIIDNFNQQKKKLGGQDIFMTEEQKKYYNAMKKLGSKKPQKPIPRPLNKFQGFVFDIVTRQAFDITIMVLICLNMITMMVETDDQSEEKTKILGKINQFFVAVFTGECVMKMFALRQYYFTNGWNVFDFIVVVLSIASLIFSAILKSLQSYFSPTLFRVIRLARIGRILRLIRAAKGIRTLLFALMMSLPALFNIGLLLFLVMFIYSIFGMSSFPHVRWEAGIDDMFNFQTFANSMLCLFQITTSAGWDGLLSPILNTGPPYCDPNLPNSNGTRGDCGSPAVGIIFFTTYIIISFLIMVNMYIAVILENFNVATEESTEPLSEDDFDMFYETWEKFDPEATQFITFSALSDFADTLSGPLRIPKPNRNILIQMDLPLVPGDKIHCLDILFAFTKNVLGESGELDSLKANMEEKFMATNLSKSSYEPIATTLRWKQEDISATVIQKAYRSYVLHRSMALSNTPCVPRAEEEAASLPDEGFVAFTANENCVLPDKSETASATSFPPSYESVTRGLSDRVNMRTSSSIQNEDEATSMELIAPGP
Assay: Inhibition of human Nav1.8 expressed in HEK293 cells assessed as ratio of peak current magnitude after compound addition to control at 30 nM incubated at -80 mV holding potential by whole-cell patch-clamp technique
Assay type: cell-based

MOLECULE_SMILES | SYSTEM_TESTED | Ratio
O=C1NCc2ccc(NC(=O)c3cc(Cl)c(F)nc3N3CCCC(F)(F)CC3)cc21 | Sodium channel protein type 10 subunit alpha (Homo sapiens, UniProt Q9Y5Y9) | 0.92
Cc1nc(N2CCCC(F)(F)CC2)c(C(=O)Nc2ccc3c(c2)CNC3=O)cc1Cl | Sodium channel protein type 10 subunit alpha (Homo sapiens, UniProt Q9Y5Y9) | 0.55
Cc1nc(N2CCCC(F)(F)CC2)c(C(=O)Nc2ccc3nc[nH]c(=O)c3c2)cc1Cl | Sodium channel protein type 10 subunit alpha (Homo sapiens, UniProt Q9Y5Y9) | 0.55
Cc1nc(N2CCCC(F)(F)CC2)c(C(=O)Nc2ccc3c(=O)[nH][nH]c(=O)c3c2)cc1Cl | Sodium channel protein type 10 subunit alpha (Homo sapiens, UniProt Q9Y5Y9) | 0.97
CNc1nc(N2CCCC(F)(F)CC2)c(C(=O)Nc2ccc3c(c2)C(=O)NC3)cc1Cl | Sodium channel protein type 10 subunit alpha (Homo sapiens, UniProt Q9Y5Y9) | 0.96
Cc1nc(N2CCCC(F)(F)CC2)c(C(=O)Nc2ccc3c(=O)[nH]c(=O)[nH]c3c2)cc1Cl | Sodium channel protein type 10 subunit alpha (Homo sapiens, UniProt Q9Y5Y9) | 0.66
Cc1nc(N2CCCC(F)(F)CC2)c(C(=O)Nc2ccc3c(c2)C(=O)NC3)cc1Cl | Sodium channel protein type 10 subunit alpha (Homo sapiens, UniProt Q9Y5Y9) | 0.49
Cc1nc(N2CCCC(F)(F)CC2)c(C(=O)Nc2ccc3c(c2)CC(=O)N3)cc1Cl | Sodium channel protein type 10 subunit alpha (Homo sapiens, UniProt Q9Y5Y9) | 0.69
Cc1nc(N2CCCCCC2)c(C(=O)Nc2ccc3c(c2)C(=O)NC3)cc1Cl | Sodium channel protein type 10 subunit alpha (Homo sapiens, UniProt Q9Y5Y9) | 0.93
Cc1nc(N2CCCC(F)(F)CC2)c(C(=O)Nc2ccc3c(c2)C(=O)NCC3)cc1Cl | Sodium channel protein type 10 subunit alpha (Homo sapiens, UniProt Q9Y5Y9) | 0.85
Cc1cc(F)ccc1Oc1cc(C(F)(F)F)ccc1C(=O)Nc1ccn(COP(=O)(O)O)c(=O)c1 | Sodium channel protein type 10 subunit alpha (Homo sapiens, UniProt Q9Y5Y9) | 0.59
Cc1nc(N2CCCC(F)(F)CC2)c(C(=O)Nc2ccc3c(c2)C(=O)NC3=O)cc1Cl | Sodium channel protein type 10 subunit alpha (Homo sapiens, UniProt Q9Y5Y9) | 0.3
CC(C)c1nc(N2CCCC(F)(F)CC2)c(C(=O)Nc2ccc3c(c2)C(=O)NC3)cc1Cl | Sodium channel protein type 10 subunit alpha (Homo sapiens, UniProt Q9Y5Y9) | 0.96
COc1nc(N2CCCC(F)(F)CC2)c(C(=O)Nc2ccc3c(c2)C(=O)NC3)cc1Cl | Sodium channel protein type 10 subunit alpha (Homo sapiens, UniProt Q9Y5Y9) | 0.97
CN(C)c1nc(N2CCCC(F)(F)CC2)c(C(=O)Nc2ccc3c(c2)C(=O)NC3)cc1Cl | Sodium channel protein type 10 subunit alpha (Homo sapiens, UniProt Q9Y5Y9) | 0.89
Cc1nc(N2CCC(F)(F)CC2)c(C(=O)Nc2ccc3c(c2)C(=O)NC3)cc1Cl | Sodium channel protein type 10 subunit alpha (Homo sapiens, UniProt Q9Y5Y9) | 0.96
Cc1nc(N2CCCC(F)(F)CC2)c(C(=O)Nc2ccc3cc[nH]c(=O)c3c2)cc1Cl | Sodium channel protein type 10 subunit alpha (Homo sapiens, UniProt Q9Y5Y9) | 0.68
Cc1nc(N2CCCC(F)(F)CC2)c(C(=O)Nc2ccc3c(=O)[nH]cnc3c2)cc1Cl | Sodium channel protein type 10 subunit alpha (Homo sapiens, UniProt Q9Y5Y9) | 0.92
Cc1nc(N2CCCC(F)(F)CC2)c(C(=O)Nc2ccc3c(c2)NC(=O)C3)cc1Cl | Sodium channel protein type 10 subunit alpha (Homo sapiens, UniProt Q9Y5Y9) | 0.52
O=C1NCc2ccc(NC(=O)c3cc(Cl)cnc3N3CCCC(F)(F)CC3)cc21 | Sodium channel protein type 10 subunit alpha (Homo sapiens, UniProt Q9Y5Y9) | 0.92
Cc1nc(N2CCCC(F)(F)CC2)c(C(=O)Nc2ccc3o[nH]c(=O)c3c2)cc1Cl | Sodium channel protein type 10 subunit alpha (Homo sapiens, UniProt Q9Y5Y9) | 0.69
Cc1nc(N2CCCC(F)(F)CC2)c(C(=O)Nc2ccc3c(c2)C(=O)NC3)cc1C(F)(F)F | Sodium channel protein type 10 subunit alpha (Homo sapiens, UniProt Q9Y5Y9) | 0.91
